test system: Trypanosoma cruzi; experiment: Trypanosoma cruzi phosphomannomutase and mannose-1-phosphate guanylyltransferase assay; type: functional; set-up: scale not given: direction of the effect not stated beside the values; settings: 10 µM
For each record, write down the corresponding Percent Effect.
Form entry: value (%) — number only.

Lookup: Percent Effect / Trypanosoma cruzi / c1ccc(-n2cc(CN3CCCC(Cn4cncn4)C3)nn2)cc1 (stereo unspecified)
-3.79

Try "COCCN1C(=O)[C@]2(CC[C@@H]3CN(C(=O)NC4CCCC4)C[C@@H]32)N=C1C" next.
4.83

"NC(=O)COc1ccc(CNCc2ccc(F)cc2F)cc1" ?
3.01

Further, for O=C(N1CCCC1)N1Cc2nccn2CC(CN2CCCC2)C1 (stereo unspecified) ?
-5.77

Also check CCOCC(O)CN1CCN(C(=O)CC(C)(C)C)CC1 (stereo unspecified)
-1.98

Same read-out for "CCc1nnc2n1CCN(Cc1csc(-c3ccsc3)n1)C2" ?
0.68

Next compound: "CC1=N[C@@]2(CC[C@@H]3CN(Cc4ccccc4F)C[C@@H]32)C(=O)N1CC1CC1"
-0.195

Now the same for "CN(Cc1cccnc1)C1CC2(CCN(c3ccccn3)CC2)C1"
-5.12

Consider next the compound "CN(C(=O)CCNC(=O)NC1CCCCC1)c1ccccc1" in the same way.
3.21

And for "COCCNS(=O)(=O)c1ccc2c(c1)CCN(C(=O)c1cncn1C)C2" ?
-1.46

Ok, now CC1CCCN(C(=O)CCc2cccnc2)C1 (stereo unspecified)
-5.57

* * *

organism: Homo sapiens; experiment: To identify inhibition of the IFN signalling (Jak-Stat) pathway via expression of an eGFP reporter gene under the control of an IFN-stimulated response element (ISRE) containing MxA promoter.; type: functional; design: scale not given: direction of the effect not stated beside the values; settings: 30 µM
Experimental readout: Percent Effect (%)
Response body: numeric value in %, unit text excluded.

Using the record for "Cc1cccc(C(=O)N2C[C@@H]3CCN(c4cccnc4)C[C@@H]3C2)c1" , report its Percent Effect.
16.4

Now consider CC(=O)N1CC(=O)N(c2ccccc2)CC12CCN(Cc1cccs1)C2 (stereo unspecified) and answer again.
-11.1

Also "Cn1nc2c(cc1=O)CN(CC(=O)Nc1ccc(Cl)cn1)CC2" ?
-2.31

Proceed to "CN1CCN(CCCNC(=O)c2cc(Cl)c3c(c2)OCO3)CC1"
-22.6

Cool, now "CSCCCNC(=O)Nc1cccc(-c2nccn2C)c1"
10.7

Same thing, different molecule: Cc1ccc(CNCc2nnc3n2CC(C(F)(F)F)CC3)cc1 (stereo unspecified)
11.6

What about "CN(C)C(=O)CN1CCC2(CCN(Cc3nccs3)CC2)C1=O" ?
13.1

How about CCCC(NC(=O)c1ccc(OC)cc1F)c1nnn[nH]1 (stereo unspecified) ?
-13.2

Also Cc1nc(C)n(CC2CCCN(Cc3nnc(C(C)(C)C)o3)C2)n1 (stereo unspecified) , if possible.
-1.74

Param item: Cn1ncc2c1CCCC2NCc1cnc(-c2ccccc2)nc1 (stereo unspecified)
22.4

And c1ccc(-c2nccc(CNCC3CCCN3c3cccnn3)n2)cc1 (stereo unspecified) ?
20.1

* * *

target: Proteasome subunit beta (Trypanosoma cruzi); assay: Trypanosoma cruzi proteasome chymotrypsin-like activity (TcProtChymo) assay.; format: functional; parameters: scale not given: in the data most compounds retested in dose-response had high values; conditions: 9.37 µM
Experimental readout: Percent Effect (%)
Hi! Could you send only the number? It should be in %, unit omitted.

What value of Percent Effect has been reported for the following compound? "COc1cc(CNC(=O)Nc2cc(C(F)(F)F)c[nH]c2=O)ccn1"
12.7

Cc1nc(CN2CCOC(CNc3cccnn3)C2)cs1 (configuration not stated) , same question.
20.2

What about this compound? "CN(CCn1nc2ccccn2c1=O)CC(=O)N1CCCC1"
11.6

And Cc1noc(C)c1CNC(=O)N1CCC(C(O)c2ccccc2)CC1 (configuration not stated) ?
-1.8

Also "O=S1(=O)COCCN1Cc1cccc(Cl)c1" , if possible.
13.4

Now consider "Cn1cnnc1C1CCN(c2cncc(-n3cccn3)n2)CC1" .
13.8

Same read-out for "CCS(=O)(=O)N1CCO[C@H]2[C@H](OCC3CCCC3)CC[C@@H]21" ?
7.01

Moving on to the next compound: "CN(C)C(=O)CNC(=O)Nc1cccc(Cl)c1SC(F)F"
1.05

Also "CN(C)CCCNC(=O)c1cc(Br)c2c(c1)OCCO2" ?
6.28

Input "Cn1cc(CN2CCC3(C2)CN(Cc2ccsc2)C3)cn1"
10.5

Entry O=C1CC2(CCN(CC3CCOC3)CC2)CN1Cc1cc(F)cc(F)c1 (configuration not stated) please
9.65

Param item: "CCCc1nc(N2CCN(CC)CC2)c2c(n1)c(C)nn2CC"
10.5

Would you kindly repeat that for "O=C(CCOc1ccccc1)N1CCC(Nc2cccnn2)CC1" ?
5.5

What do we get for CCn1cc2c(n1)CN(Cc1nccs1)CC2COCC1CC1 (configuration not stated) ?
6.61

Param item: CNS(=O)(=O)c1cccc(C(C)NCc2cccc(OC)c2)c1 (configuration not stated)
4.31

Next record, please: CCC(O)CNC(=O)C1(N(C)Cc2ccccc2)Cc2ccccc2C1 (configuration not stated)
8.72

Now this one: CC(C)c1noc(C(C)N2CCN(Cc3ccco3)CC2)n1 (configuration not stated)
2.45

Follow-up entry: CCc1nc(C2CCCN2CC(=O)Nc2nncs2)no1 (configuration not stated)
2.53

Next entry: "Cn1cc(CN2C[C@@H]3COC[C@@H](C(=O)N4CCCCO4)[C@@H]3C2)cn1"
8.19

Entry to check: "CN1CCN(Cc2ccccc2CNC(=O)c2ccc(Br)cc2)CC1"
5.92

// same read-out, input: CN(C)c1cc2c(nn1)CCN(C(=O)C1CCc3ccccc31)C2 (configuration not stated)
-1.06

Ok, now "c1ccc(-c2cc(CN3CCC(c4ccn[nH]4)CC3)on2)cc1"
17.2

What do you get for COC(=O)C(c1cc(F)ccc1F)N(C)C(=O)c1ccnc(C)n1 (configuration not stated) ?
1.72

Another: CC1c2ncc(Cn3cncn3)n2CCN1C1CCOCC1 (configuration not stated)
9.91

How about CNC(=O)CC1CC2(CCN(Cc3nccs3)CC2)c2ccccc21 (configuration not stated) ?
11.8

Then this compound: Cn1cc(CCNC(=O)NC2CCS(=O)(=O)C2)cn1 (configuration not stated)
11.8

Follow-up item: "CS(=O)(=O)NC[C@]12COC[C@H]1CN(C(=O)c1ccccc1)C2"
-1.22

What do you have for COCCc1noc(CNC2CCc3nc(C(C)C)nn3C2)n1 (configuration not stated) ?
6.39

Also CN(CCc1ccccc1)C1CCCN(Cc2nccn2C)C1 (configuration not stated) ?
9.48

What do you get for "O=C(c1cccc2cccnc12)N1CCCN(c2cccnn2)CC1" ?
10.8

Continue with COc1cccc(N2CCN(C(=O)C(O)c3cccc(Cl)c3)CC2=O)c1 (configuration not stated)
11.2

Do the same for COc1ccsc1C(=O)N1CCCC(n2nc(C)nc2C)C1 (configuration not stated) please
-1.72

Input COc1c(C2CCCN2C(=O)c2csc(C(C)C)n2)c(C)nn1C (configuration not stated)
-5.91

Record: Cn1ncc2c1CCCC2NCc1cnc(-c2ccccc2)nc1 (configuration not stated)
1.44

What about this compound? "COc1ccc(CN2C[C@H]3CC[C@](O)(c4ccc(C)cn4)[C@H]3C2)c(F)c1"
-1.56

Note, next up: O=C(C1CC(=O)N(C2CCCC2)C1)N1CCN(CCn2cccc2)CC1 (configuration not stated)
16.9

Another compound to check: "CN(Cc1ccco1)C[C@H]1OC[C@@H]2CCN(Cc3nccs3)C[C@@H]21"
16.1

What do we get for "O=C(CC1CC1)NCc1cn2c(n1)CN(CC1CC1)CC2" ?
10.7

Repeat for the following compound: "CNC(=O)[C@H]1CCS(=O)(=O)[C@@H]2CN(Cc3ccc(OC)cc3)C[C@H]12"
-0.592

Entry to check: Cc1ccsc1C(=O)N1CC(C(=O)NCC2CC2)C2(CCOCC2)C1 (configuration not stated)
8.36

Similarly, "COc1ccc(C(=O)NS(=O)(=O)c2ccc(C#N)cc2C(F)(F)F)cc1" ?
-3.06

Follow-up entry: "Cc1cccc(C(=O)N2C[C@@H]3OCCN(c4ncccn4)[C@@H]3C2)n1"
7.35

Follow-up entry: CN1CC(=O)N(c2cnn(C)c2)CC12CCN(Cc1ccccc1)C2 (configuration not stated)
4.02

Try this compound too: "Cn1cc(N2CC3(CCN(CC4CCOCC4)CC3)OCC2=O)cn1"
19.8

Then this compound: "CCS(=O)(=O)N1CCC(c2nnc(Cn3cccn3)n2C2CC2)CC1"
2.1

And what about the compound "CCN(Cc1ccc2c(c1)OCO2)C(=O)c1ccc(C)[nH]c1=O" ?
11.9

Similarly, "CCN1CCN(S(=O)(=O)c2cc(C)c(Cl)cc2Cl)CC1" ?
-0.166

The origin of these recorded values is ChEMBL document CHEMBL3988442.
